# Tested Target: HIV-1 integrase wild-type (IN1-288) (HIV-1) (UniProt P12497)
# Test Protocol: inhibition
# Assay Context: PS at first and last linkages; 3'-processing; strand transfer >0.5 uM
Measured Quantity: IC50

Lab entry: HIV-1 integrase wild-type (IN1-288) (HIV-1) (UniProt P12497) assay, sequence TCTTCCTCTCTCTACCCACGCTCIC [T30662 antisense GEM91 variant pPT] , IC50 = > 500 nM

Hey, just so you know, these numbers are from patent US6323185.
